These measurements were taken from patent US11446346B2.

Experiment: in vivo
Set-up: species or system SD rats
Details: male, SD, rat, po, 50 mg/kg
Description: The study was performed in male SD rats. To determine oral bioavailability of bergenin, the bergenin was administered at 5 mg/kg by IV route and at 50 mg/kg by oral route. […] The plasma samples were analyzed for bergenin content using a fit-for purpose LC-MS/MS method with a lower limit of quantification (LLOQ) of 9.95 ng/mL. The pharmacokinetic parameters of bergenin were calculated using the non-compartmental analysis tool of validated Phoenix® WinNonlin® software (version 6.3).
Measured quantity: half-life (h)
Value expressed in h; do not type the unit.

Summary for this compound, COc1c(O)cc2c(c1O)[C@@H]1O[C@H](CO)[C@@H](O)[C@H](O)[C@H]1OC2=O : half-life is 1.74
